Numbers sourced from ChEMBL document CHEMBL5375995.

Target: ClpP1P2 (Mycobacterium tuberculosis (strain ATCC 25618 / H37Rv), UniProt P9WPC3+P9WPC5, E149R)
Assay: Inhibition of Mtb ClpP1 E149R mutant expressed in Escherichia coli BL21(DE3)
Measurement name: IC50 (µM)
Please give a number only; it is taken to be in µM.

COc1cc2c(Oc3ccc4[nH]c(C)cc4c3F)ncnc2cc1OCCCN1CCCC1 [CEDIRANIB] has a reported IC50 of 41.8

* * *

Molecular target: ClpP1P2 (Mycobacterium tuberculosis (strain ATCC 25618 / H37Rv), UniProt P9WPC3+P9WPC5, I146T)
Test: Inhibition of Mtb ClpP1 I146T mutant expressed in Escherichia coli BL21(DE3)
Measurement name: IC50 (µM)
Please give a number only; it is taken to be in µM.

COc1cc2c(Oc3ccc4[nH]c(C)cc4c3F)ncnc2cc1OCCCN1CCCC1 has a reported IC50 of 5.1

* * *

Biological target: ClpP1P2 (Mycobacterium tuberculosis (strain ATCC 25618 / H37Rv), UniProt P9WPC3+P9WPC5, H117A)
Test: Inhibition of Mtb ClpP1 H117A mutant expressed in Escherichia coli BL21(DE3)
Measurement name: IC50 (µM)
Please give a number only; it is taken to be in µM.

COc1cc2c(Oc3ccc4[nH]c(C)cc4c3F)ncnc2cc1OCCCN1CCCC1 has a reported IC50 of 4.4
